Biological target: human ether-à-go-go-related gene (hERG) potassium channel (human, UniProt Q12809);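 note: peak tail current of the secondary pulse compared with the same well before compound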
Sequence (Q12809 whole entry, looked up): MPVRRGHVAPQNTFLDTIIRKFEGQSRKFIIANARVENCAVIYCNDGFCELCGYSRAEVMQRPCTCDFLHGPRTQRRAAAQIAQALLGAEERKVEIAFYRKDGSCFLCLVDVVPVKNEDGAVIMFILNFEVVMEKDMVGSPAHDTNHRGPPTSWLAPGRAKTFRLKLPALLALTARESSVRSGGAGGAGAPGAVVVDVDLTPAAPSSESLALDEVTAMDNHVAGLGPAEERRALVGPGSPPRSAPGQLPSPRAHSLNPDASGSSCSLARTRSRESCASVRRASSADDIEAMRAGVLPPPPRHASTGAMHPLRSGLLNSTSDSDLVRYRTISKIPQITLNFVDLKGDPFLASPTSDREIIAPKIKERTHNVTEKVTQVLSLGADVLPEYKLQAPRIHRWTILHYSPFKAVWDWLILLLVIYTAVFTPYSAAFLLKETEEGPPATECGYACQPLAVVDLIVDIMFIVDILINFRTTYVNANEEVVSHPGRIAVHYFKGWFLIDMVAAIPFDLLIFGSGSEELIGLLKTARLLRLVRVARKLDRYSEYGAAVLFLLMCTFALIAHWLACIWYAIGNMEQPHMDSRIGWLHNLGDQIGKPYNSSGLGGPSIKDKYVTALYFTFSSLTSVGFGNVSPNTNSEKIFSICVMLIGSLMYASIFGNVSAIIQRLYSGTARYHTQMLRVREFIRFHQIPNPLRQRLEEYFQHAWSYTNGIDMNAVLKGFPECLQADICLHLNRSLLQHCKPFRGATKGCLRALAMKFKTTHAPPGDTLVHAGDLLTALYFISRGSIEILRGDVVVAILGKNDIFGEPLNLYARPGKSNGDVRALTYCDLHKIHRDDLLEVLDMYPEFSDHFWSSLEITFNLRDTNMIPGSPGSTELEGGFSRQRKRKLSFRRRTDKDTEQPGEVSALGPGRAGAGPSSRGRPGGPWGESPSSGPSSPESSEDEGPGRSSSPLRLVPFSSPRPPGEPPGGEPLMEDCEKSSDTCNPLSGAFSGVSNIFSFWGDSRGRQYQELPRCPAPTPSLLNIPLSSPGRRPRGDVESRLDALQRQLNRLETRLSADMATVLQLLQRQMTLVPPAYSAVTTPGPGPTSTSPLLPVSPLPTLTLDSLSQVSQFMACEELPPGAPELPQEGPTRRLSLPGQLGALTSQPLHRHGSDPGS
Experiment: primary screen, population patch clamp on CHO cells stably expressing hERG; higher = less effect of the substance
Screen size: about 310,000 compounds; about 14,000 (4.5%) showed an effect of 50% or more. Effects have a minus sign here. This is one part of a sample in which strong results are shown more often than they occur.
quantityKind: hERG current change (%, negative = inhibition) at 10uM (%)

                          chemicalstructure  observed
0  O=C(c1cc2ccccc2o1)N1CCN(c2cccc(Cl)c2)CC1     -16.3
1  FC(F)(F)c1cc(Oc2ccc(Cl)cc2)ncc1-c1nnc(-c2ccc(Cl)cc2)o1      5.81
2  O=C(c1cc(=O)c2ccccc2o1)N1CCN(c2cccc(Cl)c2)CC1     -56.4
3  O=C(c1cc(=O)c2cc(Cl)ccc2o1)N1CCN(Cc2ccccc2)CC1     -70.8
4  Cc1cc(C)c2oc(C(=O)N3CCN(Cc4ccccc4)CC3)cc(=O)c2c1     -42.9
